Data origin: patent US6683077B2

Target: Human leukocyte elastase (HLE) (Homo sapiens, UniProt P08246)
Construct: gift of R. Senior, Washington University
Sequence (P08246 30-267): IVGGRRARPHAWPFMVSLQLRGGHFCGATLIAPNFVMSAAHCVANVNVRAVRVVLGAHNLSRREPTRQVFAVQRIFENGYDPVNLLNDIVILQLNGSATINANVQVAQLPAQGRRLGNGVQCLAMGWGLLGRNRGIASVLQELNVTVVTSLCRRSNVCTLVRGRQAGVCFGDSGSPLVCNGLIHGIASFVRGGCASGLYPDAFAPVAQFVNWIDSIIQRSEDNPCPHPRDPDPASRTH
Assay: Human leukocyte elastase assay
Type: biochemical
Settings: @ 10 (concentration unit not given)
MEASUREMENT TYPE: HLE, % @ concentration (% @ 10)

                                   compound        measurement_type  number
0  Cc1c(CNC(=O)OC(C)(C)C)ccc2nc(N[C@@H](Cc3ccccc3)C(=O)N(C)Cc3ccccc3)oc(=O)c12  HLE, % @ concentration      31
1  COc1ccc(C[C@H](Nc2nc3ccc(NC(=O)OC(C)(C)C)c(C)c3c(=O)o2)C(=O)N(C)Cc2ccccc2)cc1  HLE, % @ concentration      42
2  CCOC(=O)NCc1ccc2nc(N[C@@H](Cc3ccccc3)C(=O)N(C)Cc3ccccc3)oc(=O)c2c1C  HLE, % @ concentration      29
3  COc1ccc(C[C@H](Nc2nc3ccc(CNC(=O)OCC(C)C)c(C)c3c(=O)o2)C(=O)N(C)Cc2ccccc2)cc1  HLE, % @ concentration      45
4  COc1ccc(C[C@H](Nc2nc3ccc(N(C)C)c(C)c3c(=O)o2)C(=O)N(C)c2ccc(Cl)cc2)cc1 [Example 16c]  HLE, % @ concentration      18
5  CCN(C(=O)[C@H](Cc1ccccc1)Nc1nc2ccc(CNC(=O)OC(C)(C)C)c(C)c2c(=O)o1)c1ccccc1  HLE, % @ concentration      16
6  Cc1c(NC(=O)OC(C)(C)C)ccc2nc(N[C@H]3CCN(c4ccc(C#N)cc4)C3=O)oc(=O)c12  HLE, % @ concentration      25
